# experimental_system: Phosphorylation of Y223 of BTK (Homo sapiens, UniProt Q06187)
# Sequence (Q06187 whole entry): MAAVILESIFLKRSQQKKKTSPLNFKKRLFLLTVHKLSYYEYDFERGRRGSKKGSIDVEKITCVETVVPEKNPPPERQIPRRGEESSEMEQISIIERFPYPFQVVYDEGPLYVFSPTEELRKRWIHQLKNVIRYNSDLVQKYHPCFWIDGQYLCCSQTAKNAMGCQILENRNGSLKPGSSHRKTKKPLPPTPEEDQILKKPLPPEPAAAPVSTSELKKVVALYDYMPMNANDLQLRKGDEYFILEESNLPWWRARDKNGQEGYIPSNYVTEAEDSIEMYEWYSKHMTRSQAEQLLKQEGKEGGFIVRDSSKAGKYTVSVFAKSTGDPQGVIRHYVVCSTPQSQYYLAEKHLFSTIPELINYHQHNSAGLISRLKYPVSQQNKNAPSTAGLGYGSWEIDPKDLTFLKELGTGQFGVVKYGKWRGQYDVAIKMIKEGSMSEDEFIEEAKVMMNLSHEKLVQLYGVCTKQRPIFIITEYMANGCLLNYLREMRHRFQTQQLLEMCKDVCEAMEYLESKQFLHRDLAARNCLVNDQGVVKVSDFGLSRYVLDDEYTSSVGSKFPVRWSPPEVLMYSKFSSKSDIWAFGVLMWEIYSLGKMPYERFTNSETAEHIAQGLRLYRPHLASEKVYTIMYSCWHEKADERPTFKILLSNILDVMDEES
# assay_text: Whole blood compound screening, phosphorylation of Y223 site of BTK (MSD assay)
# assay_context: healthy human whole blood, 2 hours at 37° C., 3 separate donors; read-out: WB BTK-pY223 EC50
pEC50: −log10 of the molar value.
endpoint: pEC50

compound | endpoint | numeric_value
C=CC(=O)N1CCN([C@@H]2CCNc3c2nn(-c2ccc(Oc4cccc(C5CC5)c4)cc2)c3C(N)=O)CC1 [Example 78] | pEC50 | 7.24
C=CC(=O)N1CCC(C2CCNc3c2nn(-c2ccc(Oc4cccc(C)c4)cc2)c3C(N)=O)CC1 (centres unmarked) [Example 24] | pEC50 | 7.03
C=CC(=O)N1CCC(C2CCNc3c2nn(-c2ccc(Oc4cccc(F)c4)cc2)c3C(N)=O)CC1 (centres unmarked) [Example 12] | pEC50 | 7.48
C=CC(=O)N1CCN(C2CCNc3c2nn(-c2ccc(Oc4ccccc4)cc2)c3C(N)=O)CC12CC2 (centres unmarked) [Example 53] | pEC50 | 7.14
C=CC(=O)N1CCN(C2CCNc3c2nn(-c2ccc(Oc4ccccc4)cc2)c3C(N)=O)C[C@@H]1C (some centres unmarked) [Example 43] | pEC50 | 7.20
C=CC(=O)N1CCN([C@@H]2CCNc3c2nn(-c2ccc(Oc4ccccc4OC)cc2)c3C(N)=O)CC1 [Example 93] | pEC50 | 6.40
C=CC(=O)N1CCN([C@@H]2CCNc3c2nn(-c2ccc(Oc4ccccc4OC(F)(F)F)cc2)c3C(N)=O)CC1 [Example 90] | pEC50 | 6.03
C=CC(=O)N1CCN([C@@H]2CCNc3c2nn(-c2ccc(Oc4ccc(OC)cc4)cc2)c3C(N)=O)CC1 [Example 87] | pEC50 | 6.79
C=CC(=O)N1CCN([C@@H]2CCNc3c2nn(-c2ccc(Oc4ccc(F)cc4F)cc2)c3C(N)=O)CC1 [Example 70] | pEC50 | 6.62
C=CC(=O)N1CCN([C@@H]2CCNc3c2nn(-c2ccc(Oc4ccccc4C4CC4)cc2)c3C(N)=O)CC1 [Example 68] | pEC50 | 7.02
C=CC(=O)N1CCN([C@@H]2CCNc3c2nn(-c2ccc(Oc4cccc(C#N)c4)cc2)c3C(N)=O)CC1 [Example 64] | pEC50 | 7.12
C=CC(=O)N1C[C@@H]2CN(C3CCNc4c3nn(-c3ccc(Oc5ccccc5)cc3)c4C(N)=O)C[C@@H]2C1 (mixture of isomers) [Example 66] | pEC50 | 5.74
C=CC(=O)N1CCN([C@@H]2CCNc3c2nn(-c2ccc(Oc4cc(F)ccc4F)cc2)c3C(N)=O)CC1 [Example 74] | pEC50 | 7.25
C=CC(=O)N1CCN([C@@H]2CCNc3c2nn(-c2ccc(Oc4ccc(C)cc4)cc2)c3C(N)=O)CC1 [Example 92] | pEC50 | 6.22
C=CC(=O)N1CCC([C@H]2CCNc3c2nn(-c2ccc(Oc4ccc(F)cc4F)cc2)c3C(N)=O)CC1 [Example 30] | pEC50 | 7.34
C=CC(=O)N1CCN([C@@H]2CCNc3c2nn(-c2ccc(Oc4ccccc4C#N)cc2)c3C(N)=O)CC1 [Example 69] | pEC50 | 7.53
C=CC(=O)N1CC(N2CCNc3c2nn(-c2ccc(Oc4ccccc4)cc2)c3C(N)=O)C1 [Example 22] | pEC50 | 7.42
C=CC(=O)N1CCN(C2CCNc3c2nn(-c2ccc(Oc4cccc(F)c4)cc2)c3C(N)=O)CC1 (centres unmarked) [Example 57] | pEC50 | 7.07
C=CC(=O)N1CCN(C2CCNc3c2nn(-c2ccc(Oc4ccccc4)cc2)c3C(N)=O)CC1 (centres unmarked) [Example 3] | pEC50 | 7.39
C=CC(=O)N1CCN([C@@H]2CCNc3c2nn(-c2ccc(Oc4cccc(F)c4)cc2)c3C(N)=O)CC1 [Example 67] | pEC50 | 7.73
C=CC(=O)N1CC(N2CCNc3c2nn(-c2ccc(Oc4ccccc4F)cc2)c3C(N)=O)C1 [Example 75] | pEC50 | 7.21
C=CC(=O)N1CCC(N2CCNc3c2nn(-c2ccc(Oc4ccccc4)cc2)c3C(N)=O)CC1 [Example 16] | pEC50 | 7.74
C=CC(=O)N1CCN([C@@H]2CCNc3c2nn(-c2ccc(Oc4ccc(O)cc4)cc2)c3C(N)=O)CC1 [Example 44] | pEC50 | 6.80
C=CC(=O)N1CCN([C@H]2CCNc3c2nn(-c2ccc(Oc4cc(F)cc(F)c4)cc2)c3C(N)=O)CC1 [Example 59] | pEC50 | 6.93
C=CC(=O)N1CCC(O)(C2CCNc3c2nn(-c2ccc(Oc4ccccc4)cc2)c3C(N)=O)CC1 (centres unmarked) [Example 84] | pEC50 | 7.34
C=CC(=O)N1CCN(C2CCNc3c2nn(-c2ccc(Oc4ccccc4C(F)(F)F)cc2)c3C(N)=O)CC1 (centres unmarked) [Example 54] | pEC50 | 7.12
C=CC(=O)N1CCN([C@H]2CCNc3c2nn(-c2ccc(Oc4ccccc4)cc2)c3C(N)=O)CC12CC2 [Example 83] | pEC50 | 5.76
C=CC(=O)N1CCN([C@@H]2CCNc3c2nn(-c2ccc(Oc4ccccc4)cc2)c3C(N)=O)CC12CC2 [Example 82] | pEC50 | 7.36
C=CC(=O)N1CCN([C@@H]2CCNc3c2nn(-c2ccc(Oc4ccccc4C(F)(F)F)cc2)c3C(N)=O)CC1 [Example 60] | pEC50 | 7.08
